Source listed as patent EP4647443A1.

Target: T1, S. aureus gamma-hemolysin component B (HlgB) (Staphylococcus aureus, UniProt P0A075 27-325)
T1 sequence: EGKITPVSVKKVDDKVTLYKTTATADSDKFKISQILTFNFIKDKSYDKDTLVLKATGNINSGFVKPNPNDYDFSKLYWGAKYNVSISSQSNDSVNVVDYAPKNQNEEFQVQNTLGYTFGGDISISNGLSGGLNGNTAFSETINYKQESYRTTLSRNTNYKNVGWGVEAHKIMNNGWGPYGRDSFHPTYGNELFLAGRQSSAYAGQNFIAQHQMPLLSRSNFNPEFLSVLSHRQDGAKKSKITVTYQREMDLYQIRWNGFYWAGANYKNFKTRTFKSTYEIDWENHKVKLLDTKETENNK
Test: BLI, biotinylated VHH on streptavidin sensor, HlgB in solution
measurement type: Kd (nM)
One number for each entry, in nM.

Task: Suppose we examine the binder Bm29H04 (VHH) VHH: QVQLVESGGGLVQPGGSLRLSCTASGVSLDDFAIGWFRQAPGKEREGVSCSSSRDRSEYYRDSVKGRFTISRDSQKNTVDLQMNSLTIEDTAVYYCAADPQPYPCSVGSLDRYNSWGQGTLVTVSS ; what Kd value has been reported?
Result: 0.06
